# studyTarget: human JAK2 (a.a. 828-1132) catalytic domain (Homo sapiens (Human), UniProt O60674)
# Sequence (O60674 828-1132): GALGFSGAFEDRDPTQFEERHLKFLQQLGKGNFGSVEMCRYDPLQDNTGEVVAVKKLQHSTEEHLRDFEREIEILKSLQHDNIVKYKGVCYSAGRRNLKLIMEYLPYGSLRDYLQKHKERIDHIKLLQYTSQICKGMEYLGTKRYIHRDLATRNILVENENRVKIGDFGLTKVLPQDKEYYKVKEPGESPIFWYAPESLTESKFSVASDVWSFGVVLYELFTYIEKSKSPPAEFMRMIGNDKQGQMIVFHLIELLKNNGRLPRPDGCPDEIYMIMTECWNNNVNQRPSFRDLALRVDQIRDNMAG
# assayProtocol: In vitro JAK kinase assay (HTRF, 1 mM ATP), JAK2
# Assay type: biochemical
# experimentalParameters: at 1 mM ATP
pIC50: −log10 of the molar value.
Entries and their pIC50

| smiles | result |
| --- | --- |
| CC(C)NC(=O)c1ccc(N2CC(CC#N)(n3cc(-c4ccnc5[nH]ccc45)cn3)C2)cc1 | 7.40 to 8.00 |
| C[C@H](NC(=O)c1ccc(N2CC(CC#N)(n3cc(-c4ncnc5[nH]ccc45)cn3)C2)cc1F)C(F)(F)F | 7.40 to 8.00 |
| CC(C)NC(=O)c1cnc(N2CC(CC#N)(n3cc(-c4ncnc5[nH]ccc45)cn3)C2)cn1 | 7.40 to 8.00 |
| C[C@H](NC(=O)c1ccc(N2CC(CC#N)(n3cc(-c4ncnc5[nH]ccc45)cn3)C2)cc1F)C1CCCCC1 | 7.40 to 8.00 |

Query block: Can you share its pIC50? I mean this compound: `N#CCC1(n2cc(-c3ncnc4[nH]ccc34)cn2)CN(c2cnc(C(=O)N[C@@H](C3CC3)C(F)(F)F)cn2)C1`
Result block: ≥ 8.00

Query block: Can you share its pIC50? I mean this compound: `CC(C)NC(=O)c1cc(Cl)c(N2CC(CC#N)(n3cc(-c4ncnc5[nH]ccc45)cn3)C2)cc1F`
Result block: ≥ 8.00

Query block: Can you share its pIC50? I mean this compound: `CC(C)NC(=O)c1ccc(N2CC(CC#N)(n3cc(-c4ncnc5[nH]ccc45)cn3)C2)c(F)c1`
Result block: ≥ 8.00

* * *

Entries and their IC50
# studyTarget: human JAK1 (a.a. 837-1142) catalytic domain (Homo sapiens, UniProt P23458)
# Sequence (P23458 whole entry, looked up, the tested form may be a part): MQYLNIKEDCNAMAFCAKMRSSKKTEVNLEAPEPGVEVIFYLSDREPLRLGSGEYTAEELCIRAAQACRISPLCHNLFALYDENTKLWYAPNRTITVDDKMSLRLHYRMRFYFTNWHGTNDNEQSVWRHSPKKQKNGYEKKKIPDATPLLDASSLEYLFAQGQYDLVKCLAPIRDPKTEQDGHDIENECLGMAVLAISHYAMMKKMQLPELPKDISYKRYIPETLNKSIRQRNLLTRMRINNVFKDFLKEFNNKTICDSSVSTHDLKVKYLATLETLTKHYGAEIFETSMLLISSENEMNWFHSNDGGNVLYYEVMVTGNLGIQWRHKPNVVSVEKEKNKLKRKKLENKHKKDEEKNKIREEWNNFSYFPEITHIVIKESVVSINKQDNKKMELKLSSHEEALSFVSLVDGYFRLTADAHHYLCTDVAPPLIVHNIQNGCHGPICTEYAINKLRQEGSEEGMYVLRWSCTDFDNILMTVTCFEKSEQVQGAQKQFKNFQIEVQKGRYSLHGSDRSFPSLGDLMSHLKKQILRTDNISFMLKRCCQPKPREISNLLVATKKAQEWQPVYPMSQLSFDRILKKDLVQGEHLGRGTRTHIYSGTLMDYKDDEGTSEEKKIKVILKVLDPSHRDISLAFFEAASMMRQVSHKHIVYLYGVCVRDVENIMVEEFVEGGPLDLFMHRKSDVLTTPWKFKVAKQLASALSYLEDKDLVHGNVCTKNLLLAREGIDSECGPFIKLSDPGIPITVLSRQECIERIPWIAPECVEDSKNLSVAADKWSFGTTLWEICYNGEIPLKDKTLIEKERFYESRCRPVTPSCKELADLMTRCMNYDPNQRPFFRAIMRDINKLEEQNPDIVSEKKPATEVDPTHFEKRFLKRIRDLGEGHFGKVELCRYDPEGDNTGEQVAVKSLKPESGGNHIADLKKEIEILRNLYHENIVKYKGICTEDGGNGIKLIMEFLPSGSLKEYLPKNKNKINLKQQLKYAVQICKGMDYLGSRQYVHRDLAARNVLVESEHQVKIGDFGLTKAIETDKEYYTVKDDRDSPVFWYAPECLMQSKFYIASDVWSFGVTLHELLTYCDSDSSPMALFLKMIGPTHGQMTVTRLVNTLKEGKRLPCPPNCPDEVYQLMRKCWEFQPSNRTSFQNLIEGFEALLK
# assayProtocol: In vitro JAK kinase assay (HTRF, 1 mM ATP), JAK1;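 also: kinase activity followed as phosphorylation of a biotin-tagged peptide, detected by HTRF with Eu-labelled anti-phosphotyrosine antibody and SA-APC, after 1 h reaction at room temperature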
# Type: biochemical
# experimentalParameters: at 1 mM ATP

Reference set, count: 3
| smiles | resultType | result |
| --- | --- | --- |
| CC(C)NC(=O)c1ccc(N2CC(CC#N)(n3cc(-c4ncnc5[nH]ccc45)cn3)C2)cc1F | IC50 | < 10 nM |
| C[C@H](NC(=O)c1ccc(N2CC(CC#N)(n3cc(-c4ccnc5[nH]ccc45)cn3)C2)cn1)C1CC1 | IC50 | < 10 nM |
| N#CCC1(n2cc(-c3ccnc4[nH]ccc34)cn2)CN(c2cnc(C(=O)N[C@@H](C3CC3)C(F)(F)F)cn2)C1 | IC50 | < 10 nM |

Kindly consider the entry below.
Query block: Form: Entry = `N#CCC1(n2cc(-c3ncnc4[nH]ccc34)cn2)CN(c2cnc(C(=O)N[C@@H](C3CC3)C(F)(F)F)cn2)C1` | System = human JAK1 (a.a. 837-1142) catalytic domain (Homo sapiens, UniProt P23458) | IC50 = ____
Result block: < 10 nM

* * *

# studyTarget: human JAK2 (a.a. 828-1132) catalytic domain (Homo sapiens (Human), UniProt O60674)
pIC50: −log10 of the molar value.
Entries and their pIC50

Reference set, count: 4
| compound | result |
| --- | --- |
| N#CCC1(n2cc(-c3ncnc4[nH]ccc34)cn2)CN(c2cnc(C(=O)NC3(C(F)(F)F)CC3)cn2)C1 | 7.40 to 8.00 |
| C[C@@H](NC(=O)c1cnc(N2CC(CC#N)(n3cc(-c4ncnc5[nH]ccc45)cn3)C2)cn1)C(F)(F)F | 7.40 to 8.00 |
| C[C@H](NC(=O)c1cc(F)c(N2CC(CC#N)(n3cc(-c4ncnc5[nH]ccc45)cn3)C2)cc1F)C(F)(F)F | ≥ 8.00 |
| N#CCC1(n2cc(-c3ccnc4[nH]ccc34)cn2)CN(c2ccc(C(=O)NC3(C(F)(F)F)CC3)nc2)C1 | 7.40 to 8.00 |

Kindly consider the entry below.
Query block: Form: Entry = CC[C@@H](C)NC(=O)c1ccc(N2CC(CC#N)(n3cc(-c4ncnc5[nH]ccc45)cn3)C2)cc1 [Example 25, bis(trifluoroacetate)] | System = human JAK2 (a.a. 828-1132) catalytic domain (Homo sapiens (Human), UniProt O60674) | pIC50 = ____
Result block: ≥ 8.00
